assay: Allosteric inhibition of LEDGF binding to HIV integrase by InLEAD assay; set-up: species or system Human immunodeficiency virus
# IC50 annotations

For orientation, consider the following solved cases.
>  <Compound>
Cc1ccc(-c2c([C@H](OC(C)(C)C)C(=O)O)c(C)nc3ccccc23)cc1C

>  <IC50>
0.037 µM

$$$$
>  <Compound>
COc1ccc(NC(=O)c2cccc(-c3ccccc3S(=O)(=O)NC(C)(C)C)n2)cc1

>  <IC50>
> 33.8 µM

$$$$
>  <Compound>
CC(C)(C)NS(=O)(=O)c1ccccc1-c1cncc(C(=O)Nc2ccc(CCCC(=O)O)cc2)c1

>  <IC50>
1 µM

$$$$
>  <Compound>
COc1ccc(NC(=O)c2cccc(-c3ccccc3S(=O)(=O)NC(C)(C)CC(C)(C)C)c2)cc1

>  <IC50>
> 67.5 µM

$$$$

In: Fill blank: measured IC50 of the compound COCC1(NS(=O)(=O)c2ccccc2-c2cccc(C(=O)Nc3ccc(OC)cc3)c2)CCCC1 is ____.
Out: > 67.5 µM

In: What do we get for COc1ccc(NC(=O)c2cncc(-c3cccc(C)c3S(=O)(=O)NC(C)(C)C)c2)cc1 ?
Out: > 67.5 µM

In: // same read-out, input: COc1ccc(NC(=O)c2cncc(-c3ccccc3S(=O)(=O)NC(C)(C)C)c2)cc1
Out: 1.29 µM

In: Same question for COC(=O)CCc1ccc(NC(=O)c2cccc(-c3ccccc3S(=O)(=O)NC(C)(C)C)c2)cc1 please.
Out: 1.45 µM

In: Another compound to look at: COC(=O)C(Cc1ccccc1)NC(=O)CCc1ccc(NC(=O)c2cncc(-c3ccccc3S(=O)(=O)NC(C)(C)C)c2)cc1 (centres undefined)
Out: 3.22 µM

----------
system: Human immunodeficiency virus 1; experiment: Antiviral activity against early stage HIV-1 assessed as disruption of proviral integration; assay type: functional, organism-based
Measured pIC50 by item
Answer as the number alone; pIC50 is minus log10 of concentration in mol/L.

// worked examples, pIC50 included
>  <Smiles string>
COCC1(NS(=O)(=O)c2ccccc2-c2cccc(C(=O)Nc3ccc(OC)cc3)c2)CCCC1

>  <pIC50>
4.79

$$$$
>  <Smiles string>
COc1ccc(NC(=O)c2cncc(-c3c(C)cccc3S(=O)(=O)NC(C)(C)C)c2)cc1

>  <pIC50>
4.60

$$$$
>  <Smiles string>
COc1ccc(NC(=O)c2cncc(-c3ccccc3S(=O)(=O)NC(C)(C)C)c2)cc1

>  <pIC50>
4.56

$$$$

Next item in the queue.
In: Quick check: pIC50 of Cc1ccc(-c2c([C@H](OC(C)(C)C)C(=O)O)c(C)nc3ccccc23)cc1C ?
Out: 5.78

----------
experiment: Allosteric inhibition of LEDGF binding to HIV integrase by InLEAD assay; set-up: species or system Human immunodeficiency virus
Outcome measure: IC50 (µM)
Write down the numeric answer in µM and omit the unit.

Below, 6 molecules whose answers are already recorded.
>  <Smiles string>
COc1ccc(NC(=O)c2cc(-c3ccccc3S(=O)(=O)NC(C)(C)C)ccc2F)cc1

>  <Experimental value>
2.81

$$$$
>  <Smiles string>
COc1ccc(NC(=O)c2cncc(-c3c(C)cccc3S(=O)(=O)NC(C)(C)C)c2)cc1

>  <Experimental value>
1.29

$$$$
>  <Smiles string>
CCC(C)(C)NS(=O)(=O)c1ccccc1-c1cccc(C(=O)Nc2ccc(OC)cc2)c1

>  <Experimental value>
17.3

$$$$
>  <Smiles string>
COc1ccc(NC(=O)c2cccc(-c3ccccc3S(=O)(=O)NC3(C)CC3)c2)cc1

>  <Experimental value>
5.97

$$$$
>  <Smiles string>
COc1ccc(NC(=O)c2cc(-c3ccccc3S(=O)(=O)NC(C)(C)C)ccn2)cc1

>  <Experimental value>
3.79

$$$$
>  <Smiles string>
COc1ccc(NC(=O)c2cncc(-c3cc(C)ccc3S(=O)(=O)NC(C)(C)C)c2)cc1

>  <Experimental value>
8.85

$$$$

Note: attention shifts to another entry.
In: Please give the measured IC50 for this molecule: CC(C)(C)NS(=O)(=O)c1ccccc1-c1cccc(C(=O)Nc2ccc(CCC(=O)O)cc2)c1
Out: 3.74

----------
The following compounds are listed with their measured pIC50 values.
tested on: Human immunodeficiency virus 1; experiment: Antiviral activity against late stage HIV-1 assessed as inhibition of viral replication; format: functional, organism-based
API: returns pIC50 as number; meaning -log10 of concentration in mol/L.

Below: 4 compounds and their reported pIC50.
>  <Smiles string>
CC(C)(C)NS(=O)(=O)c1ccccc1-c1cccc(C(=O)Nc2ccc(CCC(=O)O)cc2)c1

>  <pIC50>
4.92

$$$$
>  <Smiles string>
COCC1(NS(=O)(=O)c2ccccc2-c2cccc(C(=O)Nc3ccc(OC)cc3)c2)CCCC1

>  <pIC50>
5.15

$$$$
>  <Smiles string>
Cc1ccc(-c2c([C@H](OC(C)(C)C)C(=O)O)c(C)nc3ccccc23)cc1C

>  <pIC50>
7.51

$$$$
>  <Smiles string>
COc1ccc(NC(=O)c2cncc(-c3c(C)cccc3S(=O)(=O)NC(C)(C)C)c2)cc1

>  <pIC50>
5.57

$$$$

In: Request: pIC50, test system Human immunodeficiency virus 1, entry COc1ccc(NC(=O)c2cncc(-c3ccccc3S(=O)(=O)NC(C)(C)C)c2)cc1
Out: 5.29

----------
Reported pIC50 values for the following compounds.
experiment: Allosteric inhibition of LEDGF binding to HIV integrase by InLEAD assay; parameters: species or system Human immunodeficiency virus
Field pIC50 (float): negative decimal logarithm of the concentration in molar.

In: Given the compound CC(C)(C)NS(=O)(=O)c1ccccc1-c1cncc(C(=O)Nc2ccc(CCC(=O)O)cc2)c1 , what is its reported pIC50?
Out: 5.89

In: How about CC(C)(C)NS(=O)(=O)c1ccccc1-c1cncc(C(=O)Nc2ccc(CCC(=O)NCCNC(=O)c3ccc4c(c3)C(=O)OC43c4ccc(O)cc4Oc4cc(O)ccc43)cc2)c1 ?
Out: 6.43

In: Follow-up entry: Cc1ccc(NC(=O)c2cccc(-c3ccccc3S(=O)(=O)NC(C)(C)C)c2)c(C)c1
Out: 5.98
